study.target: HSET full length protein (Homo sapiens (Human), UniProt Q9BW19)
Sequence (Q9BW19 whole entry): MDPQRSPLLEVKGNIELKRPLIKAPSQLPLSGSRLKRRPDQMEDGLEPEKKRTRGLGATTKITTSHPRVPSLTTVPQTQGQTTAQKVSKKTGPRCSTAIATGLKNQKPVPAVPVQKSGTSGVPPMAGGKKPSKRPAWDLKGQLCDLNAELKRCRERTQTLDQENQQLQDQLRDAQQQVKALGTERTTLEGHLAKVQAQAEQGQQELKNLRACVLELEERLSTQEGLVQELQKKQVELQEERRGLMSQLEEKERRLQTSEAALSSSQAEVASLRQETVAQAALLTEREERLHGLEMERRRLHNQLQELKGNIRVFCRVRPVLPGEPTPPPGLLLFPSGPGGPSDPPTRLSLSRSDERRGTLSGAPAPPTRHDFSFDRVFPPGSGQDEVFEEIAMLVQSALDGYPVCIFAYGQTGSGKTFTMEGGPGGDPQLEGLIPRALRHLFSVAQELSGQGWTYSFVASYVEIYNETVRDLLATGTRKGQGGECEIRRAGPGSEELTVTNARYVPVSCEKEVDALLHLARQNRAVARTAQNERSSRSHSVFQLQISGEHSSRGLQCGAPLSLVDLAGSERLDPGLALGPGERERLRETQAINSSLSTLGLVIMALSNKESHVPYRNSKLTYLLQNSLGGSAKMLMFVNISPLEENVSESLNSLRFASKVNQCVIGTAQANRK
experimental.details: HSET ADP-Glo Assay S - 3 μM ATP
study.conditions: 5 nM HSET, 70 μg/mL microtubule, 80 min at rt, read-out: COMBINED HSET ADP GLO IC50
Counter-ions that a name gives are not always drawn.
quantity.name: IC50 (µM)

Worked cases, answers included:
molecule	endpoint.value
CCCNC(=O)c1cc(NC(=O)CCNc2nccc3ccc(-c4noc(C)n4)cc23)nn1C	3.89
Cc1nc(-c2ccc3ccnc(N[C@@H](CCCN)CC(=O)Nc4nc(C)c(C(C)(C)C)s4)c3c2)no1 [Example 164, formate]	0.116
Cc1nc(-c2ccc3ccnc(N[C@H]4CCN(C(=O)c5cc(C6CC6)n(C)n5)C4)c3c2)no1	13.6
Cc1nc(-c2cccc(C(=O)N[C@H](CC#N)CC(=O)Nc3nc(C)c(C(=O)OC(C)(C)C)s3)c2)no1	0.096
CCOC(=O)c1sc(NC(=O)CCNC(=O)c2cccc(-c3noc(C)n3)c2)cc1C	0.093

I: CCCOC(=O)c1sc(NC(=O)C[C@H](CCCNC)Nc2nccc3ccc(-c4noc(C)n4)cc23)nc1C
II: Cc1nc(NC(=O)C[C@H](CC#N)Nc2nccc3ccc(C#N)cc23)sc1C(=O)OC(C)C
## Input Which value of IC50 is greater, the one for I or the one for II ? Record your answer as the label of the chosen record.
## Output II

* * *

study.target: UniProt:Q9BW19
experimental.details: HSET ADP-Glo Assay S - 3 μM ATP
study.conditions: 5 nM HSET, 70 μg/mL microtubule, 80 min at rt, read-out: COMBINED HSET ADP GLO IC50
Where a name gives a salt, the structure may show the parent alone.
quantity.name: IC50 (nM)

Worked cases, answers included:
compound	quantity.name	endpoint.value
CCCOC(=O)n1cc(NC(=O)[C@@H](O)CNC(=O)c2cccc(-c3cnn(C)c3)c2)nc1C	IC50	380
CCOC(=O)c1sc(C(=O)NCCNC(=O)c2cccc(-c3noc(C)n3)c2)nc1C	IC50	405
CCOC(=O)c1sc(NC(=O)CCNC(=O)c2cc(O)cc(C(=O)OC)c2)nc1C	IC50	737

1: CCCCc1sc(C(=O)NCCNc2nccc3ccc(-c4noc(C)n4)cc23)nc1C [Example 137, formate]
2: Cc1nc(-c2ccc3ccnc(NC[C@H](O)C(=O)Nc4nc(C)c(C(C)(C)C)s4)c3c2)no1
3: CCCOC(=O)c1sc(NC(=O)CCNC(=O)c2cc(C#N)cc(C(F)(F)F)c2)nc1C
## Input Rank the 3 compounds: largest IC50 first, smallest last. Please reply with the labels ordered as requested. Many thanks.
## Output 3, 1, 2
(3: 2240 nM, 1: 778 nM, 2: 52 nM)

P: CCCOC(=O)n1cnc(NC(=O)CCNc2nccc3ccc(-c4noc(C)n4)cc23)c1
Q: Cc1nc(-c2ccc3ccnc(N[C@H]4CCN(C(=O)c5cc(C(C)C)n(C)n5)C4)c3c2)no1
## Input Which value of IC50 is greater, the one for P or the one for Q ? Record your answer as the label of the chosen record.
## Output Q

* * *

study.target: HSET full length protein (Homo sapiens (Human))
experimental.details: HSET ADP-Glo Assay S - 3 μM ATP
Type: biochemical
study.conditions: 5 nM HSET, 70 μg/mL microtubule, 80 min at rt, read-out: COMBINED HSET ADP GLO IC50
Method: Example 281: Testing compounds of the present invention for inhibitory activities against HSET—HSET ADP-Glo Assay S—3 μM ATP Reagents: (+4° C. Storage) • Paclitaxel Prod.No.TXD.01 2 mM in DMSO (from Universal Biologicals Cambridge). • Tubulin Protein (Pre-formed Microtubules): Bovine Brain Prod.No.MT001-XL Lot.025 10 mg/mL (from Universal Biologicals Cambridge). […]
quantity.name: IC50 (nM)

compound	unit.of.measurement	endpoint.value
COCCOC(=O)c1sc(NC(=O)CCNC(=O)c2cccc(-c3noc(C)n3)c2)nc1C [Example 67]	nM	419

I: Cc1nc(NC(=O)[C@@H](O)CNc2nccc3ccc(-c4cnn(C)c4)cc23)sc1C(=O)OC(C)(C)C [Example 181]
II: COC(=O)c1sc(NC(=O)CCNC(=O)c2cccc(-c3noc(C)n3)c2)nc1C [Example 62]
III: CCCOC(=O)c1sc(C(=O)N[C@H]2C[C@@H](Nc3nccc4ccc(-c5noc(C)n5)cc34)C2)nc1C [Example 220]
## Input Rank the 3 compounds: largest IC50 first, smallest last. Please reply with the labels ordered as requested. Many thanks.
## Output II, III, I

* * *

study.target: HSET full length protein (Homo sapiens (Human))
experimental.details: HSET ADP-Glo Assay S - 3 μM ATP
Format: biochemical
study.conditions: 5 nM HSET, 70 μg/mL microtubule, 80 min at rt, read-out: COMBINED HSET ADP GLO IC50
Protocol: Example 281: Testing compounds of the present invention for inhibitory activities against HSET—HSET ADP-Glo Assay S—3 μM ATP Reagents: (+4° C. Storage) • Paclitaxel Prod.No.TXD.01 2 mM in DMSO (from Universal Biologicals Cambridge). • Tubulin Protein (Pre-formed Microtubules): Bovine Brain Prod.No.MT001-XL Lot.025 10 mg/mL (from Universal Biologicals Cambridge). […]
quantity.name: IC50 (µM)

Worked cases, answers included:
smiles.notation	IC50, µM
Cc1nc(-c2ccc3ccnc(N[C@H]4CCN(C(=O)Nc5nc(C)c(C(=O)OC(C)(C)C)s5)C4)c3c2)no1	0.012
CCCCCc1cc(NC(=O)[C@@H]2C[C@H](Nc3nccc4ccc(-c5noc(C)n5)cc34)CN2C)nn1C	6.74

a: CCCOC(=O)c1sc(NC(=O)[C@H]2C[C@@H](NC(=O)c3cccc(-c4noc(C)n4)c3)CN2C)nc1C
b: CCOC(=O)c1sc(NC(=O)CCNC(=O)c2cc(OC)cc(C(=O)OC)c2)nc1C
c: Cc1nc(NC(=O)C[C@@H](CC#N)Nc2nccc3ccc(C#N)cc23)sc1C(=O)OC(C)C
d: Cc1nc(-c2ccc3ccnc(N[C@@H]4CCN(C(=O)Nc5nc(C)c(C(=O)OC(C)(C)C)s5)C4)c3c2)no1
## Input Rank the 4 compounds: largest IC50 first, smallest last. Please reply with the labels ordered as requested. Many thanks.
## Output a, c, d, b

* * *

study.target: HSET full length protein (Homo sapiens (Human))
experimental.details: HSET ADP-Glo Assay S - 3 μM ATP
study.conditions: 5 nM HSET, 70 μg/mL microtubule, 80 min at rt, read-out: COMBINED HSET ADP GLO IC50
pIC50: −log10 of the molar value.
quantity.name: pIC50

Worked cases, answers included:
compound	pIC50
C=C(c1ccccc1)c1sc(NC(=O)CCNC(=O)c2cccc(-c3noc(C)n3)c2)nc1C	6.08
CCCOC(=O)c1cc(C(=O)NCCNc2nccc3ccc(-c4noc(C)n4)cc23)nn1C	5.37
Cc1nc(-c2ccc3ccnc(NCCC(=O)Nc4cc(C(C)(C)C)n(C)n4)c3c2)no1	5.83
Cc1nc(-c2cccc(C(=O)NCCC(=O)Nc3nc(C)c(C(=O)OC4CCCC4)s3)c2)no1	7.57
CCOC(=O)c1cc(NC(=O)CCNc2nccc3ccc(-c4noc(C)n4)cc23)n[nH]1	6.37

I: CCOC(=O)c1sc(NC(=O)CCNC(=O)c2cc(Cl)cc(-c3noc(C)n3)c2)nc1C
II: Cc1nc(-c2cccc(C(=O)NCCC(=O)Nc3cn(C(=O)OC(C)C)c(C)n3)c2)no1
## Input Lower value of pIC50 belongs to which: I or II ? Record your answer as the label of the chosen record.
## Output II
(II: 6.55, I: 7.26)

P: Cc1nc(-c2ccc3ccnc(NCCC(=O)Nc4nc(C)c(C5(C(F)(F)F)CC5)s4)c3c2)no1
Q: CCCOC(=O)n1cc(NC(=O)CCNc2nccc3ccc(-c4noc(C)n4)cc23)nc1C
## Input Lower value of pIC50 belongs to which: P or Q ? Record your answer as the label of the chosen record.
## Output P

I: CCCOC(=O)c1sc(NC(=O)[C@@H]2C[C@H](Nc3nccc4ccc(-c5noc(C)n5)cc34)CN2C)nc1C
II: CCOC(=O)n1cc(NC(=O)[C@@H](O)CNC(=O)c2cccc(-c3cnn(C)c3)c2)nc1C
## Input Which value of pIC50 is greater, the one for I or the one for II ? Record your answer as the label of the chosen record.
## Output I
(I: 7.00, II: 5.40)

* * *

study.target: HSET full length protein (Homo sapiens (Human), UniProt Q9BW19)
experimental.details: HSET ADP-Glo Assay S - 3 μM ATP
Type: biochemical
study.conditions: 5 nM HSET, 70 μg/mL microtubule, 80 min at rt, read-out: COMBINED HSET ADP GLO IC50
quantity.name: IC50 (µM)

I: Cc1nc(-c2ccc3ccnc(N[C@H]4CCN(C(=O)c5cnn(C(C)(C)C)c5)C4)c3c2)no1
II: Cc1nc(NC(=O)C[C@H](CC#N)Nc2nccc3ccc(-c4cnn(C)c4)cc23)sc1C(=O)OC(C)C
III: CCOC(=O)c1sc(NC(=O)CCNC(=O)c2cc(C(=O)OC)ccc2Cl)nc1C
IV: Cc1nc(-c2cccc(C(=O)NCCC(=O)Nc3nc(C)c(C(=O)OCC(C)C)s3)c2)no1
## Input Order each entry by recorded IC50, climbing from the minimum. Please reply with the labels ordered as requested. Many thanks.
## Output IV, II, III, I

From: patent US20250084074A1
